# Assay Comment: Modulation of calcium release-activated calcium channel in mitomycin C-stimulated human PBMC assessed as [3H]thymidine incorporation after 4 days by topcount scintillation counting analysis
Measured IC50 accompanies every entry in the list below.
Property Name: IC50 (nM)

1. CCc1sc(-c2cnccn2)nc1-c1ccc2c(c1)OCC(c1c(F)cccc1F)N2 (stereo unspecified) : 180
2. CCc1sc(-c2cccnc2)nc1-c1ccc2c(c1)OCC(c1c(F)cccc1F)N2 (stereo unspecified) : 100
3. Cc1sc(-c2cccnc2)nc1-c1ccc2c(c1)OCC(c1c(F)cccc1F)N2 (stereo unspecified) : 190
4. CCc1sc(-c2ccncc2)nc1-c1ccc2c(c1)OCC(c1c(F)cccc1F)N2 (stereo unspecified) : 440
5. CCn1nc(-c2cccnc2)cc1-c1ccc2c(c1)OCC(c1c(F)cccc1F)N2 (stereo unspecified) : 330
6. CCc1sc(-c2cc(C)on2)nc1-c1ccc2c(c1)OCC(c1c(F)cccc1F)N2 (stereo unspecified) : 430

meta.source: ChEMBL document CHEMBL3091425
